Recorded values, source the supplement of paper PMC6555819.

system: FXR:RXRa (NR concentration 270 nM, RXRa partner concentration 90 nM); experiment: PBM binding z-score (relative to random genomic background probes); higher = stronger binding; sequences stand for … in GC…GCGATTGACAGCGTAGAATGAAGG
property.measured: PBM binding z-score
Form rule: numeric answer, no unit written next to it.

Give the measured PBM binding z-score of "CAGAGTAGGTTACGAGGGGGCATTCAGTGCGAAT" . 3.11

Which value of PBM binding z-score has been reported for "TGAATGAGGTTTAAGATCAGGGAACGTGGCGTCG" in the records? -0.267

Param item = "ATATGTAGCTTAGGGTCATTCAGAAAGTAGGGAA" ; retrieve measured PBM binding z-score. 4.3

So what's the measured PBM binding z-score for this one? "TCTACTTGGTCACGGAGGTCACACACGACGGGTA" 3.59

Bench note: what PBM binding z-score did "TCGAGTAGGTTACGGGGGCATTCGGGGATGAAGA" show? 3.14
